Target: T1, Xrt-lin28a (Xenopus tropicalis, UniProt Q5EB47 34-177)
T1 sequence: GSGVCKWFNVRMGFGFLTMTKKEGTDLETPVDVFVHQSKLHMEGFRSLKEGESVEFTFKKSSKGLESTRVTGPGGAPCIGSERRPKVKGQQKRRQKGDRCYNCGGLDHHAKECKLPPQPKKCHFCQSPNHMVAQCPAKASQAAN
Assay: EMSA; Bmax 0.962; n=3; 60 mM KCl, 10 mM HEPES pH 7.6, 3 mM MgCl2, 5% glycerol, 1 mM DTT, 5 ug/ul heparin, 150 ng yeast total RNA; 30 min room temperature; 10% native PAGE
Details: protein: recombinant
Measurement kind: Kd (nM)
Number only, in nM; omit the unit.

Prompt line: Sample UGCAAUUUUAUUUAGUUUGGUAGGAGAAAAAUUGC (structured_RNA) [L-mir-363] — what was its Kd?
Response line: 448
